TESTED ON: Tyrosine-protein kinase BTK (Homo sapiens)
Sequence (Q06187 whole entry): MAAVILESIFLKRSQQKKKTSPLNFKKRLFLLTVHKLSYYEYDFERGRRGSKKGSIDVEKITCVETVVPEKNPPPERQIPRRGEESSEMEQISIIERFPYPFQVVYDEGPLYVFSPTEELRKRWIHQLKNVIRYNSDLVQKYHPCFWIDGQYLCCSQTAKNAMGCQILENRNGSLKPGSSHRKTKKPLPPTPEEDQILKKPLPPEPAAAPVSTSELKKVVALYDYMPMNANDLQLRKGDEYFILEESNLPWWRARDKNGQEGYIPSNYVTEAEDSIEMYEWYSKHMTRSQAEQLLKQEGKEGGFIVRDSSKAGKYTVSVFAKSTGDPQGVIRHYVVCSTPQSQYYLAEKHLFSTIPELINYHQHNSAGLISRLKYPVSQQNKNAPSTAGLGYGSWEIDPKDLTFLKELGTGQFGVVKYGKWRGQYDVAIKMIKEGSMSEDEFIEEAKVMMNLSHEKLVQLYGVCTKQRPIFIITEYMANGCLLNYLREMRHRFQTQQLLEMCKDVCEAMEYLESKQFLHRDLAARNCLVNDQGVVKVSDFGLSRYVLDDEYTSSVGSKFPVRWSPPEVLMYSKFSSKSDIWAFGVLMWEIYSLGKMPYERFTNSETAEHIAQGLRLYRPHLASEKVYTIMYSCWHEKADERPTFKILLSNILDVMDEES
QUANTITY MEASURED: Kd
Report field: quantity (unit follows the number).

What does the data say about its Kd? Entry: Cc1cc2nc(-c3ccccc3)cc(N3CCC(N(C)C)C3)n2n1 (stereo unspecified)
27 µM

====

TESTED ON: Mitogen-activated protein kinase 8 (Homo sapiens)
Sequence (P45983 whole entry): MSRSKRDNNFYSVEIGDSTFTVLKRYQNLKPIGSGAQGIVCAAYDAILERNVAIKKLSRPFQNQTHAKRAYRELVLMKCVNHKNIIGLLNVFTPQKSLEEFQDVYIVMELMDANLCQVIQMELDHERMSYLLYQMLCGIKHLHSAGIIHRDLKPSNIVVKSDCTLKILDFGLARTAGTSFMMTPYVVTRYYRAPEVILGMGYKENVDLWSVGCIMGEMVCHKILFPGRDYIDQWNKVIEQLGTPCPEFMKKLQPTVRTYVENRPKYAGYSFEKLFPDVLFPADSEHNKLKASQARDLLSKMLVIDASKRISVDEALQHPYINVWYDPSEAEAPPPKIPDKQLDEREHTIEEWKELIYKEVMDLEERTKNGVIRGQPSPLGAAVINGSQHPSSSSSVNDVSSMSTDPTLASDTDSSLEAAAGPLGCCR
ASSAY PROTOCOL: Binding affinity to JNK1 (unknown origin) assessed dissociation constant by Kinome scan method
QUANTITY MEASURED: Kd (µM)
The answer is to be given in µM; state only the numeric part.

What does the data say about its Kd? Entry: Cc1cc2nc(-c3ccccc3)cc(N3CCC(N(C)C)C3)n2n1 (stereo unspecified)
19

====

TESTED ON: UniProt:P35372
Sequence (P35372 whole entry): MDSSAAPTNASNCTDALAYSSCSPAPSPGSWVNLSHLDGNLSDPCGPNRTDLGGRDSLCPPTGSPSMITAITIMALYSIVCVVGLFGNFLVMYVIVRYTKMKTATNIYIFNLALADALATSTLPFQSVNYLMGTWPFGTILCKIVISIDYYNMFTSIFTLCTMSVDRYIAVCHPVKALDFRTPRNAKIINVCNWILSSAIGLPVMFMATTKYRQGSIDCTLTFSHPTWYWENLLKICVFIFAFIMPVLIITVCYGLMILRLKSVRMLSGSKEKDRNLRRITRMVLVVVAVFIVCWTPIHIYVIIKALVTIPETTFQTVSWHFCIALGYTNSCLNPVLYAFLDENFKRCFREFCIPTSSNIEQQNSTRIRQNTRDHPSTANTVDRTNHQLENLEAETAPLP
QUANTITY MEASURED: pKi
Scale note: pKi = -log10(concentration in M).

Reported pKi for UniProt:P35372, given CN1CCC2(c3cccc(O)c3)Cc3nc4ccccc4cc3CC2C1 (racemic) ?
6.62

====

TESTED ON: Mitogen-activated protein kinase 10 (Homo sapiens)
Sequence (P53779 whole entry): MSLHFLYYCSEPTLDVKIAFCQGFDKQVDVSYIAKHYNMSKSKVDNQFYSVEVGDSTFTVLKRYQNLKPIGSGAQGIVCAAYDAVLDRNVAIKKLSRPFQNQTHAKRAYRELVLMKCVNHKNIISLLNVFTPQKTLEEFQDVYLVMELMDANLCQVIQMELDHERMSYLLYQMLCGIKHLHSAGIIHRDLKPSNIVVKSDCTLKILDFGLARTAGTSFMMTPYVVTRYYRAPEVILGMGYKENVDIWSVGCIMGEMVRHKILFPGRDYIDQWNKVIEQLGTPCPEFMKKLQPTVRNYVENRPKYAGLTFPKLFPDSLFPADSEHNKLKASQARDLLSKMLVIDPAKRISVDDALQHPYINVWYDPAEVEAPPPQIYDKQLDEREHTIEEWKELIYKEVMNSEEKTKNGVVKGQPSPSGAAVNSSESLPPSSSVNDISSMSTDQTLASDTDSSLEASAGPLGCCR
ASSAY PROTOCOL: Binding affinity to JNK3 (unknown origin) assessed dissociation constant by Kinome scan method
QUANTITY MEASURED: Kd

Reported Kd for Mitogen-activated protein kinase 10 (Homo sapiens), given Cc1cc2nc(-c3ccccc3)cc(N3CCC(N(C)C)C3)n2n1 (stereo unspecified) ?
> 30 µM

====

TESTED ON: Tyrosine-protein kinase BTK (Homo sapiens)
QUANTITY MEASURED: pIC50
Scale note: pIC50 = -log10(concentration in M).

What does the data say about its pIC50? Entry: Cc1cc2nc(-c3ccccc3)cc(N3CCC(N(C)C)C3)n2n1 (stereo unspecified)
4.70

====

TESTED ON: Mas-related G-protein coupled receptor member X2 (Homo sapiens, UniProt Q96LB1)
Sequence (Q96LB1 whole entry): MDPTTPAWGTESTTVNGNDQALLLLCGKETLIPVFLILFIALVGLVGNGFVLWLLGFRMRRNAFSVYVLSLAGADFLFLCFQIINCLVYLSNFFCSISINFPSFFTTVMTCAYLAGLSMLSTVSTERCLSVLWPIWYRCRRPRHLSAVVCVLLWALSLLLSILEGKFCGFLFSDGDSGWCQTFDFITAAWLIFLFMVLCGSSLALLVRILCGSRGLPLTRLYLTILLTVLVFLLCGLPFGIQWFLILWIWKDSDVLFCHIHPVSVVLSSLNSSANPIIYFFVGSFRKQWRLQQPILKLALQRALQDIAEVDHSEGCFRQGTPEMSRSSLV
ASSAY PROTOCOL: Agonist activity at MRGPRX2 (unknown origin) expressed in HTLA cells assessed as induction of beta-arrestin 2 recruitment incubated for 18 to 24 hrs by PRESTO-Tango assay
Assay type: functional, cell-based
MEASUREMENT CONTEXT: read-out: EC50
QUANTITY MEASURED: EC50 (µM)
The answer is to be given in µM; state only the numeric part.

Some compounds with known EC50 results, for comparison:
[[record]]
compound = "Cc1cc2nc(-c3ccccc3)cc(N3CCC(N(C)C)C3)n2n1 (stereo not given)"
obs_value = 3

[[record]]
compound = "CN1CC[C@]23c4c5ccc(O)c4O[C@H]2[C@@H](O)C=C[C@H]3[C@H]1C5"
obs_value = 6.4

[[record]]
compound = "CN(C)[C@@H]1CCN(c2cc(-c3ccccc3)nc3ccnn23)C1 [(R)-ZINC-3573]"
obs_value = 0.74


What does the data say about its EC50? Entry: CN1CC[C@@]23CCCC[C@@H]2[C@@H]1Cc1ccc(O)cc13
4.3
